B1: library; numbered along this chain (parent)
chain: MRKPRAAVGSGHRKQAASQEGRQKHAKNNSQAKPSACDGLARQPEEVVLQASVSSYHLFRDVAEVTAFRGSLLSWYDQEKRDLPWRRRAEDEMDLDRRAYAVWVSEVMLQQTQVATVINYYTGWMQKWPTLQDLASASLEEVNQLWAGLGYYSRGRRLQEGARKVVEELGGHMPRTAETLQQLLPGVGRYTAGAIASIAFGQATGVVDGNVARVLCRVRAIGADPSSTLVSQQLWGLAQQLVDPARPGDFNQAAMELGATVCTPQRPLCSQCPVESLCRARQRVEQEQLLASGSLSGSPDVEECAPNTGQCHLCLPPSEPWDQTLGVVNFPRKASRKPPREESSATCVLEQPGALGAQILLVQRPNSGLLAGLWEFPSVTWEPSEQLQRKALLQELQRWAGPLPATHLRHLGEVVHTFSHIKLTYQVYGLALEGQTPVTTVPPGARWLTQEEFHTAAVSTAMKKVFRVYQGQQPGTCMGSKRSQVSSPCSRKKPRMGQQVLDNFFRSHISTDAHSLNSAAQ

# Variants of: B1
# test: 8OG:A repair function score (normalized; synonymous = 0, nonsense = -1) (normalized log-likelihood score); higher = more repair activity (WT-like);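 also: cells sorted at 72 h after reporter transfection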
# condition set: with 8OG:A DNA repair reporter (GFP) in HEK-293 MUTYH KO cells
Parameter class (string): assigned from measured 8OG:A repair function score. Ranges: low group (below -0.9), middle group (-0.9 to below -0.008), high group (-0.008 or more)

# mutant label, label value
data = [
    ("D133R", "middle group"),
    ("A513H", "high group"),
    ("V206W", "low group"),
    ("T424I", "high group"),
    ("I359T", "high group"),
    ("P339K", "middle group"),
    ("V427N", "low group"),
    ("G309E", "high group"),
    ("S335E", "middle group"),
    ("V165H", "low group"),
]

These data points were gathered from the supplement of paper PMC11908140.
